target: T1, mouse serum albumin (MSA), full length (mouse, UniProt P07724 25-608); assay: SPR, immobilized MSA, 500 nM Adnectin, 25 C
T1 construct: mature; Immobilized on CM5 chip (SPR) or coated on plates (ELISA); also called mouse albumin; murine serum albumin
Provide the recorded MSA Binding (RU) for the entries that follow.
Return type: number; implicit unit RU.

Form: binder = ADX_6727_G10 (Y35S/K85A) (designed binder, Full His6-tagged entry) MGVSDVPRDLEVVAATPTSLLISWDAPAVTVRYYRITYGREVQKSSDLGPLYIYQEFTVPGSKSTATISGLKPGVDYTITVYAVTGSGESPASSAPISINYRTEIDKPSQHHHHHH ; MSA Binding (RU) = 63

Form: binder = ADX_6727_G04 (Y44S/K85S) (designed binder, Full His6-tagged entry) MGVSDVPRDLEVVAATPTSLLISWDAPAVTVRYYRITYGREVQKYSDLGPLYISQEFTVPGSKSTATISGLKPGVDYTITVYAVTGSGESPASSSPISINYRTEIDKPSQHHHHHH ; MSA Binding (RU) = 56

Form: binder = ADX_7016_G01 (Y44S) (designed binder, Full His6-tagged entry; also called 6727_G02) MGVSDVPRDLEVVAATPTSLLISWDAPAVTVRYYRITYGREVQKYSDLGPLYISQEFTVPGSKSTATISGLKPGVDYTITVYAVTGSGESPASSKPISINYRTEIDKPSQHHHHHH ; MSA Binding (RU) = 64

Form: binder = ADX_6727_A07 (Y44S/K85T) (designed binder, Full His6-tagged entry) MGVSDVPRDLEVVAATPTSLLISWDAPAVTVRYYRITYGREVQKYSDLGPLYISQEFTVPGSKSTATISGLKPGVDYTITVYAVTGSGESPASSTPISINYRTEIDKPSQHHHHHH ; MSA Binding (RU) = 56
